# Tested on: HEK-293T
# ASSAY: Multiplex assay against HEK293T
# Assay type: toxicity, cell-based
# ASSAY_CONTEXT: human, 12 h, 10 µM, compound concentration 10 uM, replicate 1
Population Hoechst High Intensity Objects (%) by entry:
Be sure to follow the number with its unit.

Solved entries:
MOLECULE	ASSAY_VALUE
CCOc1cc(C(=O)N2CCC(N3CCN(C)CC3)CC2)ccc1Nc1ncc2c(n1)N(C1CCCC1)c1ccccc1C(=O)N2C	15%
Cc1ccc(C(=O)Nc2cccc(C(F)(F)F)c2)cc1Nc1nc(-c2cccnc2)nc2c1cnn2C	19%
CCn1c(=O)c(-c2ccc(-c3cncs3)cc2Cl)cc2cnc(Nc3ccc(N4CCN(C)CC4)cc3)nc21	62%
CCc1cccc(CC)c1NC(=O)c1nn(C)c2c1CCc1cnc(Nc3ccc(C(=O)NC4CCN(C)CC4)cc3OC(F)(F)F)nc1-2	11%
CCN1CCN(c2ccc(Nc3cc(N(C)C(=O)Nc4c(Cl)c(OC)cc(OC)c4Cl)ncn3)cc2)CC1 [INFIGRATINIB]	14%

Report Population Hoechst High Intensity Objects (%) on HEK-293T for this entry: NC(=O)c1cccc(-c2cc(Nc3ccc(OC(F)(F)F)cc3)ncn2)c1
17%

Send back HEK-293T Population Hoechst High Intensity Objects (%) of O=C(Cc1ccc(-c2ccc(OCCN3CCOCC3)cc2)cn1)NCc1ccccc1 [TIRBANIBULIN] only.
18%

// fetch Population Hoechst High Intensity Objects (%); item: COc1cccc2cc(-c3nc([C@H]4CC[C@H](C(=O)O)CC4)n4ncnc(N)c34)[nH]c12 [OSI-027] ; system: HEK-293T
22%

Hey, just so you know, these numbers are from ChEMBL document CHEMBL4689842.
